Give measured Residual enzyme activity CDK5/p25 for each item. Keep answers brief.
Assayed system: CDK5/p25 (Homo sapiens, UniProt Q00535)
Construct: made in house
Sequence (Q00535 whole entry): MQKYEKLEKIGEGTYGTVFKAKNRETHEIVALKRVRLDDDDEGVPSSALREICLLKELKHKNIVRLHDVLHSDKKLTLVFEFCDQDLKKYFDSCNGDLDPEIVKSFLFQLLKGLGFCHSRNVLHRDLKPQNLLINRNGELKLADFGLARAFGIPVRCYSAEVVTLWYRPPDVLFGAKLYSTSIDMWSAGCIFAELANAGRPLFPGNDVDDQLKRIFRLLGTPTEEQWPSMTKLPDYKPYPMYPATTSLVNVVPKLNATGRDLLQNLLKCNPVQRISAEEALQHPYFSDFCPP
Sequence (Q15078 99-307 partner limits assumed): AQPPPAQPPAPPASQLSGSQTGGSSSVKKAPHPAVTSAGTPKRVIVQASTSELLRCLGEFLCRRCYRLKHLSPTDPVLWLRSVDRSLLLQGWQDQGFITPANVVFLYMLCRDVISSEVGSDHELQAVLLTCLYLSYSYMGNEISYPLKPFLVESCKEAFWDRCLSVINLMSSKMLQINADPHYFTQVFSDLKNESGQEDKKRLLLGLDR
Assay notes: radiometric protein kinase assay
Assay type: biochemical
Recorded conditions: 10 µM concentration; ± SEM
Give bare numbers, in %.

Completed entries (count: 4):
Cc1[nH]c2c3c(ccc2c1C)C(=O)NC3=O [S19] :: 94
CCc1[nH]c2c3c(ccc2c1C)CNC3=O [S18a] :: 100
CCc1c(-c2ccccc2)[nH]c2c3c(ccc12)CNC3=O [S18d] :: 112
Cc1c(-c2ccccc2)[nH]c2c3c(ccc12)CNC3=O [S18c] :: 105

(Q) I'd like to know its Residual enzyme activity CDK5/p25. The compound in question is Cc1ccc(-c2[nH]c3c4c(ccc3c2C)CNC4=O)cc1 [S18e]
(A) 114

###

Kindly supply the reported IC50 values for the records listed here.
Assayed system: CLK1 (Mus musculus, UniProt P22518)
Sequence (P22518 whole entry): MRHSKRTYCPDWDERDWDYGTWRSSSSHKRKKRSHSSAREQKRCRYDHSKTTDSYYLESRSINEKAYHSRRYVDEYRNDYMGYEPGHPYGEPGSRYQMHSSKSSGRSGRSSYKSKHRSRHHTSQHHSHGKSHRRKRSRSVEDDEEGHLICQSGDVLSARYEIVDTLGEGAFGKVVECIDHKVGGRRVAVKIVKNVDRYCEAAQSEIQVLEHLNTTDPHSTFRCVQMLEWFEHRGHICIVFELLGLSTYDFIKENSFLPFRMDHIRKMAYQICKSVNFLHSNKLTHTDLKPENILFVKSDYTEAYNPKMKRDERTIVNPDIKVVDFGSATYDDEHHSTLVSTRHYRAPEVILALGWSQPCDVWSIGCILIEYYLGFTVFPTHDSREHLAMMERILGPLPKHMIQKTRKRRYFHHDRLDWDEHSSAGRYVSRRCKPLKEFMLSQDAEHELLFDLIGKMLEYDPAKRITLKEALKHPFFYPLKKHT
Numbers only, in nM.

Past entries and their recorded results:
O=C1NCc2ccc3c(-c4ccc(Cl)c(Cl)c4)c[nH]c3c21 [8e] :: 110
O=C1NCc2ccc3c(-c4ccccc4Cl)c[nH]c3c21 [8b] :: 140

(Q) Param item = CCc1[nH]c2c3c(ccc2c1-c1ccccc1)CNC3=O [8l] ; retrieve measured IC50.
(A) 120

###

For each record, write down the corresponding IC50.
Assayed system: DYRK1B (Homo sapiens, UniProt Q9Y463)
Sequence (Q9Y463 whole entry): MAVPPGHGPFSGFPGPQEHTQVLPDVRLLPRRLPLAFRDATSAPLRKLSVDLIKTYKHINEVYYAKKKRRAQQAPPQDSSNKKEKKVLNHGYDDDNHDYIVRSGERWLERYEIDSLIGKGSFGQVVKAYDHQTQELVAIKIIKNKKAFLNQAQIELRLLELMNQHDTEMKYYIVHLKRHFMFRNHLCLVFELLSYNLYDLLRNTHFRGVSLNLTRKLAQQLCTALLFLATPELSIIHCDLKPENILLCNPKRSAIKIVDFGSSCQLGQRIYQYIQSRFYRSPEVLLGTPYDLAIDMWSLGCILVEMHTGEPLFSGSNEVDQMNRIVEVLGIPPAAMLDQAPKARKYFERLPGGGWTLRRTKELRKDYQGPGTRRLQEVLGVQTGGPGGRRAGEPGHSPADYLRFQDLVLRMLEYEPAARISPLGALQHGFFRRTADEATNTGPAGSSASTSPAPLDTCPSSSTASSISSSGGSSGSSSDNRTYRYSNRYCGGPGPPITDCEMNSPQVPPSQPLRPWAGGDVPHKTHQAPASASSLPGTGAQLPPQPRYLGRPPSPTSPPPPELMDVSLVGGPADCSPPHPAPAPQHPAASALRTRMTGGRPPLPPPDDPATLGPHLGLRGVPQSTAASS
Assay notes: radiometric protein kinase assay
Format: biochemical
Recorded conditions: 15 μmol/L ATP; read-out: IC50 DYRK 1B
Answers are plain numbers, in nM.

CC(=O)Oc1cccc(-c2c[nH]c3c4c(ccc23)CNC4=O)c1 [8h] :: 1500

Attention now turns to another entry.
(Q) Value lookup for IC50; key = O=C1NCc2ccc3c(-c4cccc([N+](=O)[O-])c4)c[nH]c3c21 [8j]
(A) 1500
